These measurements were taken from patent US9687479B2.

Reported IC50 values follow for various compounds
SYSTEM UNDER TEST: Recombinant human tissue kallikrein (KLK1) (Homo sapiens (Human), UniProt P06870)
Sequence (P06870 25-262): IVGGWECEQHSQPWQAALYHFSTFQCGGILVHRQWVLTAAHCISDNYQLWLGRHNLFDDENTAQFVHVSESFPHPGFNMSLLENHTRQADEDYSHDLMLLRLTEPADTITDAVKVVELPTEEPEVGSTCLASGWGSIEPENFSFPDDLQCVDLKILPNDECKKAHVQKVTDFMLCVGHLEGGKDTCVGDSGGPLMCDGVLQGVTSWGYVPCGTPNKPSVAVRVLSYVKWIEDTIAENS
METHOD SUMMARY: KLK1 kallikrein activity inhibition assay (Pro-Phe-Arg-AMC substrate)
Format: biochemical
ASSAY CONDITIONS: Table C

Solved cases (4 shown):
# RECORD SMILES, IC50
measured = [
    ("COc1ccc(CNc2nc(-c3ccccn3)nn2C(=O)c2ccccc2)cc1", "1 to 10 µM"),
    ("COc1ccccc1C(=O)n1nc(-c2ncccn2)nc1NCc1ccccc1", "10 to 100 µM"),
    ("COc1ccccc1C(=O)n1nc(-c2ccc(N(C)C)cc2)nc1NCc1ccc(Cl)s1", "10 to 100 µM"),
    ("COc1ccccc1C(=O)n1nc(C2CCNCC2)nc1NCc1ccc(Cl)s1", "10 to 100 µM"),
]

IC50 for Recombinant human tissue kallikrein (KLK1) (Homo sapiens (Human), UniProt P06870) with input `COc1ccc(CNc2nc(-c3cccnc3)nn2C(=O)c2ccccc2)cc1` equals 1 to 10 µM
